- experimental_system: human 5-HT2C receptor (Homo sapiens, UniProt P28335)
- Sequence (P28335 33-458): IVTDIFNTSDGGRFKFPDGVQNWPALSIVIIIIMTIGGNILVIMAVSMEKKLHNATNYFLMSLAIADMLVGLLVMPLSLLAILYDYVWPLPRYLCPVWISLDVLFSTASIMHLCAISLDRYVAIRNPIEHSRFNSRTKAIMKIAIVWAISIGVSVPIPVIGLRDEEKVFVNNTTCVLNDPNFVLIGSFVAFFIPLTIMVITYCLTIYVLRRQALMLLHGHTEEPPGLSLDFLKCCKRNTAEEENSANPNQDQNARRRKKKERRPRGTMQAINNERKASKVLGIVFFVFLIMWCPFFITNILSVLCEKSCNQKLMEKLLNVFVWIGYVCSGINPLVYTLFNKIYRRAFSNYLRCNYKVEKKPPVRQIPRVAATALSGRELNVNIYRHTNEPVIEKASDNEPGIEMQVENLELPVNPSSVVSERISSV
- assay_summary: biochemical
- Type: binding
recorded_endpoint: Ki (nM)
# unit: nM | format: bare number

Example results:
- compound: "COc1cc(CC(C)N)c(OC)cc1Cl (stereo not shown) [DOC, 2,5-Dimethoxy-4-chloroamphetamine]"
  recorded_endpoint: "Ki"
  reported_result: 3.57
- compound: "COc1cc(CCN)c(OC)cc1Cl [2C-C, 2,5-dimethoxy-4-chlorophenethylamine]"
  recorded_endpoint: "Ki"
  reported_result: 5.4
- compound: "COc1cc(CCN)c(OC)cc1C [2C-D, 2,5-dimethoxy-4-methylphenethylamine]"
  recorded_endpoint: "Ki"
  reported_result: 12.7

--- query ---
Ki in this record for COc1cc(CCN)c(OC)cc1I [2C-I, 2,5-dimethoxy-4-iodophenethylamine] : 10.2
